# Tgt: Recombinant human ASK1 kinase (Homo sapiens, UniProt Q99683)
# Construct: purchased Invitrogen Inc
# Sequence (Q99683 1-1374): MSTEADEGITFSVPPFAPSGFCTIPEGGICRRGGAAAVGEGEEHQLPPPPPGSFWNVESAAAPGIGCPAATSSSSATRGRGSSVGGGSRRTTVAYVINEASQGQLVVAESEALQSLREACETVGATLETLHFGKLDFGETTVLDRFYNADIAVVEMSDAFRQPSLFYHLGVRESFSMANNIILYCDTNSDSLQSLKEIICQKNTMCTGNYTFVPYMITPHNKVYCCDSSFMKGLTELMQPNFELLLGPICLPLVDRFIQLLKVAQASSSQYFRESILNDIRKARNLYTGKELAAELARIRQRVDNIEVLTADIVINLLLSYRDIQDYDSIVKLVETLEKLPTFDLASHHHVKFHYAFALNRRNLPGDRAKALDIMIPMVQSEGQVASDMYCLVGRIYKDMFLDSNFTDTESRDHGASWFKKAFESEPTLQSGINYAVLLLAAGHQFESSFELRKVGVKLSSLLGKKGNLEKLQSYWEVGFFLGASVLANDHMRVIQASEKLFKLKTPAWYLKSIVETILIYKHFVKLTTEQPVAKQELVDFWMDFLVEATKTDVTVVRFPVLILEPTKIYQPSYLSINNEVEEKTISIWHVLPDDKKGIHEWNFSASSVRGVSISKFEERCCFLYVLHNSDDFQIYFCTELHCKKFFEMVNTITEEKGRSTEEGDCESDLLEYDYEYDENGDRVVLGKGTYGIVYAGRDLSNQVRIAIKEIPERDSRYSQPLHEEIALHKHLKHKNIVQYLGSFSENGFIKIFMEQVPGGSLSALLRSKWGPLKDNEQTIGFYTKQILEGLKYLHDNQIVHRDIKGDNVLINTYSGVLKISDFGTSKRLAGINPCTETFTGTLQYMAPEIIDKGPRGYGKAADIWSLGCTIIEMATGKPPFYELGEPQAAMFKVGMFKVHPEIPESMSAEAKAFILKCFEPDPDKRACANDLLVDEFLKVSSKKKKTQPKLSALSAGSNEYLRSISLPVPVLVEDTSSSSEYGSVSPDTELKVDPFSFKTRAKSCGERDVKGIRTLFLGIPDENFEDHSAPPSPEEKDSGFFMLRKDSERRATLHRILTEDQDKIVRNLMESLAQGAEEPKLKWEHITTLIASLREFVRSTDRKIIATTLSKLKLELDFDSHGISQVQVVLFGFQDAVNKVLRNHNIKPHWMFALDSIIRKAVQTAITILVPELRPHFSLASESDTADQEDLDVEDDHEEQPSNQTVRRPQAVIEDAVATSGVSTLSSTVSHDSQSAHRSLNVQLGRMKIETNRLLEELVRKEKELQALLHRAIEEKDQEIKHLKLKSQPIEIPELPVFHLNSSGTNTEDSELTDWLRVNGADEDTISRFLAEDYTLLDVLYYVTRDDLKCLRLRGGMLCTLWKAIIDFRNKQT
# Test protocol: ASK1 kinase HTRF assay (KinEASE-STK)
# Format: biochemical
# Condition label: HTRF detection; 3 nM ASK1 kinase, 1 uM STK-substrate-biotin
pEC50: −log10 of the molar value.
Consider the following molecules and their measured pEC50 readings.
Measured attribute: pEC50

INSERT INTO measurements (smi, measured_attribute, recorded_result) VALUES
  ('Cc1cccc(-c2cnc(-c3cccc(-c4nncn4C(C)C)n3)o2)c1', 'pEC50', '6.30 to 7.30'),
  ('CC(C)n1cnnc1-c1cccc(-c2ncc(-c3cccc(C#N)c3)o2)n1', 'pEC50', '6.30 to 7.30'),
  ('CC(C)n1cnnc1-c1cccc(-c2ncc(-c3cccc(C4CC4)c3)o2)n1', 'pEC50', '≥ 7.30');

###

# Tgt: Recombinant human ASK1 kinase (Homo sapiens, UniProt Q99683)
# Test protocol: ASK1 kinase HTRF assay (KinEASE-STK)
# Condition label: HTRF detection; 3 nM ASK1 kinase, 1 uM STK-substrate-biotin
pEC50: −log10 of the molar value.
The compounds listed here are annotated with their pEC50.
Measured attribute: pEC50

INSERT INTO results (compound, recorded_result) VALUES
  ('Cc1ccc(-c2cnc(-c3cccc(-c4nncn4[C@H](C)CO)n3)o2)cc1 [Compound I-030]', '≥ 7.30'),
  ('CC(C)n1cnnc1-c1cccc(-c2ncc(C3CCCCC3)o2)n1 [Compound I-016]', '6.30 to 7.30'),
  ('CC(C)n1cnnc1-c1cccc(-c2ncc(-c3cccc(C4=CCN(C(=O)OC(C)(C)C)C4)c3)o2)n1 [Compound I-124]', '6.30 to 7.30'),
  ('Cc1cccc(F)c1-c1cnc(-c2cccc(-c3nncn3C(C)C)n2)o1 [Compound I-044]', '6.30 to 7.30'),
  ('CC(C)n1cnnc1-c1cccc(-c2ncc(-c3cccc(N4CCNCC4)c3)o2)n1 [Compound I-113]', '≥ 7.30'),
  ('Cc1cc(C)c(-c2cnc(-c3cccc(-c4nncn4[C@H](C)CO)n3)o2)c(C)c1 [Compound I-033]', '6.30 to 7.30'),
  ('CC(C)n1cnnc1-c1cccc(-c2ncc(-c3cccc(N4CCN(C5CC5)CC4)c3)o2)n1 [Compound I-118]', '≥ 7.30'),
  ('Cc1ccc(-c2cnc(-c3cccc(-c4nncn4C(C)C)n3)o2)c(F)c1 [Compound I-041]', '≥ 7.30'),
  ('Cc1ccc(-c2cnc(-c3cccc(-c4nncn4[C@H](C)CO)n3)o2)c(F)c1 [Compound I-042]', '≥ 7.30'),
  ('CC(C)n1cnnc1-c1cccc(-c2ncc(-c3ccc(-c4ccccc4)cc3)o2)n1 [Compound I-105]', '6.30 to 7.30'),
  ('C[C@H](CO)n1cnnc1-c1cccc(-c2ncc(-c3cccc(C4CCCC4)c3)o2)n1 [Compound I-135]', '≥ 7.30'),
  ('CC(C)n1cnnc1-c1cccc(-c2ncc(-c3ccccc3O)o2)n1 [Compound I-072]', '≥ 7.30'),
  ('C[C@H](CO)n1cnnc1-c1cccc(-c2ncc(-c3cccc(C4=CCCCC4)c3)o2)n1 [Compound I-130]', '6.30 to 7.30'),
  ('CC(C)n1cnnc1-c1cccc(-c2ncc(-c3cccc(C4=CCCCC4)c3)o2)n1 [Compound I-132]', '6.30 to 7.30'),
  ('C[C@H](CO)n1cnnc1-c1cccc(-c2ncc(-c3c(F)cc(F)cc3F)o2)n1 [Compound I-053]', '≥ 7.30'),
  ('c1ccc(-c2cnc(-c3cccc(-c4nncn4C4CC4)n3)o2)cc1 [Compound I-017]', '6.30 to 7.30'),
  ('CC(C)n1cnnc1-c1cccc(-c2ncc(-c3cccc(C4CCNCC4)c3)o2)n1 [Compound I-123]', '≥ 7.30'),
  ('CC(C)c1cccc(-c2cnc(-c3cccc(-c4nncn4C(C)C)n3)o2)c1 [Compound I-034]', '6.30 to 7.30'),
  ('CSc1cccc(-c2cnc(-c3cccc(-c4nncn4C(C)C)n3)o2)c1 [Compound I-068]', '≥ 7.30'),
  ('Cc1cc(F)c(-c2cnc(-c3cccc(-c4nncn4[C@H](C)CO)n3)o2)c(F)c1 [Compound I-052]', '≥ 7.30'),
  ('CC(C)n1cnnc1-c1cccc(-c2ncc(-c3ccccc3)o2)n1 [Compound I-002]', '≥ 7.30'),
  ('CC(C)n1cnnc1-c1cccc(-c2ncc(-c3ccccc3C(F)(F)F)o2)n1 [Compound I-085]', '6.30 to 7.30'),
  ('CC(C)n1cnnc1-c1cccc(-c2ncc(-c3ccc(OC(F)F)cc3)o2)n1 [Compound I-084]', '≥ 7.30'),
  ('CC(C)n1cnnc1-c1cccc(-c2ncc(-c3ccccc3C#N)o2)n1 [Compound I-089]', '6.30 to 7.30'),
  ('C[C@H](CO)n1cnnc1-c1cccc(-c2ncc(-c3ccc(S(N)(=O)=O)cc3)o2)n1 [Compound I-100]', '≥ 7.30'),
  ('CC(C)n1cnnc1-c1cccc(-c2ncc(-c3ccc(N)cc3)o2)n1 [Compound I-065]', '≥ 7.30'),
  ('CC(C)n1cnnc1-c1cc(-c2ncc(-c3ccccc3)o2)cs1 [II-01]', '6.30 to 7.30'),
  ('CC(C)n1cnnc1-c1cccc(-c2ncc(-c3ccc(C(N)=O)cc3)o2)n1 [Compound I-095]', '6.30 to 7.30'),
  ('CC(C)n1cnnc1-c1cccc(-c2ncc(-c3cccc(OC(F)F)c3)o2)n1 [Compound I-083]', '6.30 to 7.30'),
  ('CC(C)n1cnnc1-c1cccc(-c2ncc(-c3cccc(OC(F)(F)F)c3)o2)n1 [Compound I-082]', '6.30 to 7.30'),
  ('CC(C)n1cnnc1-c1cccc(-c2ncc(-c3ccc(OC(F)(F)F)cc3)o2)n1 [Compound I-081]', '6.30 to 7.30'),
  ('CC(C)n1cnnc1-c1cccc(-c2ncc(-c3cccc(N4CCCCC4)c3)o2)n1 [Compound I-120]', '6.30 to 7.30'),
  ('Cc1ccc(-c2cnc(-c3cccc(-c4nncn4C(C)C)n3)s2)c(F)c1 [Compound I-003]', '6.30 to 7.30');
